- Target or test system: R878K mutated mAPA (Mus musculus, UniProt P16406, R878K)
- Construct: made in house; host or cells: stably transfected CHO-K1 cells
- Sequence (P16406 1-945 R878K): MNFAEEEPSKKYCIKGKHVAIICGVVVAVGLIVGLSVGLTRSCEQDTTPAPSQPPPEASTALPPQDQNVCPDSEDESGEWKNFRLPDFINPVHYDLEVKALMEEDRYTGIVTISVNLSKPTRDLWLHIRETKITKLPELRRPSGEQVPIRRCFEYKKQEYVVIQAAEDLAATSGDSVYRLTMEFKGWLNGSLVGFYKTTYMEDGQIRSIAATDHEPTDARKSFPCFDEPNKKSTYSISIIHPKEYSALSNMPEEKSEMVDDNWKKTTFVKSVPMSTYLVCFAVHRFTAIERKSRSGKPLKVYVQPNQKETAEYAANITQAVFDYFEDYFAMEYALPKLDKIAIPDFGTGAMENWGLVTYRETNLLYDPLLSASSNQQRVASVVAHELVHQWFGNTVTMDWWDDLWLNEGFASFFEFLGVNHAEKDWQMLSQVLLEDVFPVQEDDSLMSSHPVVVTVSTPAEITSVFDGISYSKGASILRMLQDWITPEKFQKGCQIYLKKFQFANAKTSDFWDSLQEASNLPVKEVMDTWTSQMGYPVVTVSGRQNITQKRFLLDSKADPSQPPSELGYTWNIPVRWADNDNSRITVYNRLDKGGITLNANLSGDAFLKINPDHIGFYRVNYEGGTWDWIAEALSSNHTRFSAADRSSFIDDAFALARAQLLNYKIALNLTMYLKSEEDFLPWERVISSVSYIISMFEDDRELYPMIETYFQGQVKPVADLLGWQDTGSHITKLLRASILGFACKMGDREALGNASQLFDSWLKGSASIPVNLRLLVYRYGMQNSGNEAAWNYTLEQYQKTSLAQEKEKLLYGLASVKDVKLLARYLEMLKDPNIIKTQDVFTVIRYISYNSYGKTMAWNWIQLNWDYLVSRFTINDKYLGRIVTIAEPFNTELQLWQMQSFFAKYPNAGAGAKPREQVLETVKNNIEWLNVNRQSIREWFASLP
- Experimental details: Inhibition of GluNA hydrolysis by purified recombinant R878K His-mAPA
- Format: biochemical
- Test settings: R878K mAPA; 4 mM Ca2+; 0.5 mM GluNA; read-out: Ki
pKi: −log10 of the molar value.
Property label: pKi

Answered cases to consult:
Item N[C@H](CS)CCS(=O)(=O)O [EC33] has what recorded pKi?
5.82

Item NCCCC[C@H](N)CS [LysSH, (2S)-2,6-diaminohexane-1-thiol] has what recorded pKi?
4.86

[1] CSCC[C@H](N)CS [MetSH]
[2] N[C@H](CS)CCC(=O)O [GluSH, (4S)-4-amino-5-sulfanylpentanoic acid]
// compare measured pKi between 1 and 2 ; output the lower one Answer format: the label of the selected item.
1
